- measurement.description: Inhibition of HIV1 YU2 gp120 binding to CD4 expressing Cf2Th-CD4/CCR5 cells assessed as inhibition of viral infection after 48 hrs
value.kind: IC50

The examples below pair each entry with its known result.
The compound identified as O=C(COc1ccc(Cl)cc1)Nc1ccc2[nH]c(=O)[nH]c2c1 registered its IC50 at > 100 µM

For reference, reported IC50 for O=C(NCc1ccco1)C(=O)Nc1ccc(Br)cc1 stands at > 100 µM

Sample Cc1cccc(-c2cc(C(=O)Nc3ccc(Cl)cc3)[nH]n2)c1O ; IC50 observed: > 100 µM

The recorded IC50 for entry CCCN1CCCC(NC(=O)C(=O)Nc2ccc(Cl)c(F)c2)C1 (configuration not stated) equals 58 µM

The compound listed as CC(C)(CNC(=O)C(=O)Nc1ccc(Cl)c(F)c1)N1CCOCC1 shows IC50 equal to > 100 µM

Take each entry in turn and give its IC50.
1. COc1cccc(N[C@@H](C)C(=O)Nc2ccc(Br)cc2)c1
2. CN(C)C(CNC(=O)C(=O)Nc1ccc(Cl)c(F)c1)c1ccco1 (configuration not stated)
3. CC1(C)CC(NC(=O)C(=O)Nc2ccc(-n3cc(-c4ccccc4)nn3)cc2)CC(C)(C)N1
4. CC(NC(=O)C(=O)Nc1ccc(Cl)c(F)c1)c1ccc(S(N)(=O)=O)cc1 (configuration not stated)
5. CCN(CC)C(CNC(=O)C(=O)Nc1ccc(Cl)c(F)c1)CC(C)C (configuration not stated)

Response:
> 100 µM
> 100 µM
> 100 µM
> 100 µM
> 100 µM

Go through the items and report each one's IC50.
1. CN1CCCC(NC(=O)C(=O)Nc2ccc(Cl)c(F)c2)C1 (configuration not stated)
2. CCN1CCCC1CNC(=O)C(=O)Nc1ccc(Cl)c(F)c1 (configuration not stated)

Response:
1. > 100 µM
2. 85.2 µM

====

- measurement.description: Inhibition of HIV1 YU2 gp120 binding to CD4 expressing Cf2Th-CD4/CCR5 cells assessed as inhibition of viral infection after 48 hrs
pIC50: −log10 of the molar value.
value.kind: pIC50

A selection of reference data follows.
Notebook: CC1(C)CC(NC(=O)C(=O)Nc2ccc(Cl)c(OCc3ccccc3)c2)CC(C)(C)N1 , pIC50 read as < 4.00

O=C(NCC(c1ccc(Cl)cc1)N1CCCC1)C(=O)Nc1ccc(Cl)c(F)c1 (stereo unspecified) yielded pIC50 of 4.21

The measured pIC50 associated with Cc1nn(C)cc1CN(C)CC(=O)Nc1ccc(Br)cc1 reads < 4.00

Measured pIC50, O=C(NC[C@@H]1COC2(CCCC2)O1)C(=O)Nc1ccc(Cl)cc1 : < 4.00

Kindly note the recorded pIC50 for CC1(C)CC(CNC(=O)C(=O)Nc2ccc(Cl)c(F)c2)CC(C)(C)N1 , which is 4.48

Report pIC50 for each item below.
1. CN(C(=O)C(=O)NC1CC(C)(C)NC(C)(C)C1)c1ccc(Cl)cc1
2. CC1(C)CC(NCC(=O)Nc2ccc(Cl)c(F)c2)CC(C)(C)N1

Response:
< 4.00
< 4.00

Quick request: pIC50 for each listed item, please.
1. CC(CC(=O)Nc1ccc(Br)cc1)Nc1cccc(CO)c1 (stereo unspecified)
2. CN1CCCC(CNC(=O)C(=O)Nc2ccc(Cl)c(F)c2)C1 (stereo unspecified)
3. C[C@@H]1CN(CCC(=O)Nc2ccc(Br)cc2)C[C@H](C)O1
4. CC1(C)CC(NC(=O)C(=O)NCCc2ccc(Cl)cc2)CC(C)(C)N1

Response:
1. < 4.00
2. < 4.00
3. < 4.00
4. < 4.00

====

- measurement.description: Inhibition of HIV1 YU2 gp120 binding to CD4 expressing Cf2Th-CD4/CCR5 cells assessed as inhibition of viral infection after 48 hrs
value.kind: IC50

Below, 3 molecules whose answers are already recorded.
Lab note: O=C(NCC1CCCN(CCO)C1)C(=O)Nc1ccc(Cl)c(F)c1 (stereo not given) gave IC50 of 27.6 µM

Record summary for CC1(C)Cc2c(sc(NC(=O)C(=O)Nc3ccc(Cl)c(F)c3)c2C#N)C(C)(C)N1 : reported IC50 = > 100 µM

Record CCN1CCCC1CNC(=O)C(=O)Nc1ccc(Cl)cc1 (stereo not given) . Reported IC50: 58.6 µM

List the reported IC50 of each molecule below.
1. CC1(C)CC(NC(=O)C(=O)Nc2ccc3cc[nH]c3c2)CC(C)(C)N1
2. CC1Sc2cc(C(=O)NC3CC(C)(C)NC(C)(C)C3)ccc2NC1=O (stereo not given)
3. CNC(=O)c1ccc(CNC(=O)C(=O)Nc2ccc(Cl)c(F)c2)cc1
4. Cn1ccnc1C(O)(CCNC(=O)C(=O)Nc1ccc(Cl)c(F)c1)C(F)(F)F (stereo not given)
5. Cc1n[nH]c(C)c1CNC(=O)C(=O)Nc1ccc(Cl)c(F)c1
6. O=C(NC[C@@H]1CCCN2CCCC[C@H]12)C(=O)Nc1ccc(Cl)c(F)c1
7. O=C(Nc1ccnc(=O)[nH]1)c1sc2cc(Cl)ccc2c1Cl

Response:
1: > 100 µM; 2: > 100 µM; 3: > 100 µM; 4: > 100 µM; 5: 64.5 µM; 6: > 100 µM; 7: > 100 µM

====

Field: pIC50. Provide a value for each of the compounds that follow.
- measurement.description: Inhibition of HIV1 YU2 gp120 binding to CD4 expressing Cf2Th-CD4/CCR5 cells assessed as inhibition of viral infection after 48 hrs
pIC50: −log10 of the molar value.

# example entries with known answers
// recorded pIC50 for N=c1oc2cc(O)ccc2cc1C(=O)Nc1ccc(Cl)cc1 : < 4.00

Data point: CC1(C)CC(NC(=O)CC(=O)Nc2ccc(Br)cc2)CC(C)(C)N1 ; pIC50 = < 4.00

Documented pIC50 of O=C(Nc1ccc(Cl)c(F)c1)C(=O)N[C@H]1CCN(Cc2ccccc2)C1 : < 4.00

O=C(Nc1ccc(Cl)c(F)c1)C(=O)NC1CCNC2(CCC2)C1 (stereo not drawn) yielded pIC50 of 4.41

The compound identified as CCOC(=O)[C@H]1CCCN(CCC(=O)Nc2ccc(Br)cc2)C1 registered its pIC50 at < 4.00

For each of the compounds below, note its pIC50.
1. O=C(CSc1[nH]c(=O)nc2c1CCCC2)Nc1ccc(Cl)cc1
2. O=C(NCCc1cnc[nH]1)Nc1ccc(Cl)c(Cl)c1
3. O=C(COC(=O)c1n[nH]c2ccccc12)Nc1ccc(Cl)cn1
4. CC1(C)CC(NC(=O)C(=O)Nc2ccc(Cl)c(F)c2)CC(C)(C)O1
5. CC1(C)CC(NC(=O)C(=O)Nc2cccc(OCc3ccccc3)c2)CC(C)(C)N1

Response:
["< 4.00", "< 4.00", "< 4.00", "< 4.00", "< 4.00"]

Below is a list of compounds. For each, state its recorded pIC50.
1. CN1CCC(CNC(=O)C(=O)Nc2ccc(Cl)c(F)c2)CC1
2. CC1(C)O[C@@H](CN)[C@H](CNC(=O)C(=O)Nc2ccc(Cl)c(F)c2)O1
3. O=C(CSCc1cc(=O)[nH][nH]1)Nc1ccc(Br)cc1
4. CC1(C)OC(=O)N(CCC(=O)Nc2ccc(Cl)cc2)[C@@]1(C)O
5. O=C(NCc1[nH]nc2c1CCCCC2)C(=O)Nc1ccc(Cl)c(F)c1
6. CC1(C)CC(NC(=O)C(=O)Nc2ccc(Cl)c(F)c2)CC(C)(C)N1
7. Cc1ccc(N(C)C)cc1NC(=O)COc1ccc(Cl)cc1
8. O=C(NCC(c1ccco1)N1CCCC1)C(=O)Nc1ccc(Cl)c(F)c1 (stereo not drawn)

Response:
1: < 4.00; 2: 4.12; 3: < 4.00; 4: < 4.00; 5: < 4.00; 6: 4.13; 7: < 4.00; 8: < 4.00

Below is a list of compounds. For each, state its recorded pIC50.
1. Cc1ccc(C(C)C)c(OCC(=O)NNC(=O)Nc2ccc(Cl)cc2)c1
2. CC1CCCN(CCC(=O)Nc2ccc(Br)cc2)C1 (stereo not drawn)
3. O=C(NCC1NCCc2ccccc21)C(=O)Nc1ccc(Cl)c(F)c1 (stereo not drawn)
4. O=C(NC[C@@]12CCC[C@@H]1CNC2)C(=O)Nc1ccc(Cl)c(F)c1
5. CN1CCC(NC(=O)Nc2ccc(Cl)cc2Cl)CC1

Response:
["< 4.00", "< 4.00", 4.30, 4.17, "< 4.00"]

====

- measurement.description: Inhibition of HIV1 YU2 gp120 binding to CD4 expressing Cf2Th-CD4/CCR5 cells assessed as inhibition of viral infection after 48 hrs
pIC50: −log10 of the molar value.
For each record, write down the corresponding pIC50.

Example entries and their recorded answers appear below.
O=C(NCC1COc2ccccc2O1)C(=O)Nc1ccc(Br)cc1 (stereo not given) has a reported pIC50 of < 4.00

Entry CCCN1CCC(NC(=O)C(=O)Nc2ccc(Cl)c(F)c2)CC1 , pIC50 reported as < 4.00

Lab note: measured pIC50 of CC1(C)CC(NC(=O)CCC(=O)Nc2ccc(Br)cc2)CC(C)(C)N1 was < 4.00

response.value for O=C(Nc1ccc(Cl)cc1)c1cc2c([nH]c1=O)CCCC2 (field: pIC50) = < 4.00

// sample CC1(C)CC(NC(=O)C(=O)Nc2ccc(Cl)cc2F)CC(C)(C)N1 , its pIC50 was < 4.00

For each of the compounds below, note its pIC50.
1. C[C@@H](Sc1nc(N)cc(=O)[nH]1)C(=O)Nc1ccc(Cl)cc1
2. CC(C)N1CCCCC1CCNC(=O)C(=O)Nc1ccc(Cl)c(F)c1 (stereo not given)

Response:
["< 4.00", 4.57]

Go through the items and report each one's pIC50.
1. CN1CCN(C(CNC(=O)C(=O)Nc2ccc(Cl)c(F)c2)c2ccccc2Cl)CC1 (stereo not given)
2. CC1(C)CC(NC(=O)C(=O)Nc2ccc(-n3cc(CCc4ccccc4)nn3)cc2)CC(C)(C)N1
3. CC1(C)CC(NC(=O)C(=O)Nc2ccc3ccccc3c2)CC(C)(C)N1

Response:
[4.13, "< 4.00", "< 4.00"]
